The measurements presented in this section are drawn from the supplement of paper PMC7224384.

# Tested on: MDA-MB-453
# Method notes: drug sensitivity score (DSS), in combination with BLU9931 (DSS (weighted AUC score)); higher = more sensitive (stronger viability decrease); extreme values may be limits of the assay
# Run parameters: BLU9931 100 nM; 72 h
Everything with drug sensitivity score lower than 5 is false (0); everything else, including exactly 5, is true (1).

Example entries and their recorded answers appear below.
{"Line notation": "CNC(=O)CN1CCC(Oc2cc3c(Nc4cccc(Cl)c4F)ncnc3cc2OC)CC1", "Class": "false (0)"}
{"Line notation": "C/C=C1\\NC(=O)[C@H]2CSSCC/C=C/[C@H](CC(=O)N[C@H](C(C)C)C(=O)N2)OC(=O)[C@H](C(C)C)NC1=O", "Class": "true (1)"}
{"Line notation": "COc1cc(Nc2c(C#N)cnc3cc(OCCCN4CCN(C)CC4)c(OC)cc23)c(Cl)cc1Cl", "Class": "false (0)"}

Please turn your attention to the following entry.
-- ask Threshold query (drug sensitivity score >= 5) on c1cn2cc(-c3ccc4cn[nH]c4c3)nc(Nc3ccc(N4CCOCC4)cc3)c2n1
-- reply false (0)
